TEST_DETAILS: protein stability index of a GFP-peptide fusion (yeast GPS) (PSI 1-4); higher = more stable; sorted into four equal gates, so the index is relative within each strain
RUN_CONDITIONS: ubr1∆
EXPERIMENTAL_ENDPOINT: protein stability index

YKLFIWLVVPTIYNLQH [YML031W/NDC1] :: 1.26
TYGVPGSENKRGSLDSE [NUT1] :: 2.99
LKTLVQGPRSYFLDVKC [RPS27A] :: 2.99

# context switch: different sequence, same protein stability index
For the sequence LIERYYPKLTLDFQTNK [RPS17A] , what protein stability index is on record?
2.74
